Overview of reported IC50 across a group of compounds:
- TESTED TARGET: UniProt K4FQI5
- METHOD SUMMARY: Functional biochemical assay to identify treatments for viral infectious disease that targets West Nile NS2B-NS3 protease. Utilizing a direct enzyme activity measurement method, reading the fluorescence intensity is used to characterize the relative potency of inhibitors as IC50.

- O=C(Nc1ccc2c(c1)CNC2)c1cc(F)cc2c1CCNC2: 1.36 µM
- CCc1ccc(-c2nc3c(C(=O)Nc4ccc5c(c4)CNC5)cc(Cl)cc3[nH]2)cc1: 32 µM
- N#Cc1cc(C(=O)Nc2ccc3c(c2)CNC3)cc(C(F)(F)F)c1: 98.1 µM
- O=C(Nc1ccc2c(c1)CNC2)c1cc(F)cc2[nH]c(-c3ccccc3)nc12: 16 µM

Let us examine a further case.
Item "O=C(Nc1ccc2c(c1)CNC2)c1cc(Cl)cc2[nH]c(-c3ccnn3C3CC3)nc12" has what recorded IC50?
18.6 µM

----------
- TESTED TARGET: NS3 (West Nile virus)
- METHOD SUMMARY: Functional biochemical assay to identify treatments for viral infectious disease that targets West Nile NS2B-NS3 protease. Utilizing a direct enzyme activity measurement method, reading the fluorescence intensity is used to characterize the relative potency of inhibitors as IC50.
REPORTED ENDPOINT: IC50 (µM)
Reply with just the number (in µM).

For orientation, consider the following solved cases.
* O=C(Nc1cc(Cl)cc([C@H](C#CCO)Nc2cccc(-c3nn[nH]n3)c2)c1)OCc1ccccc1 | 34.2
* N#C[C@H](Nc1cccc(-c2nn[nH]n2)c1)c1cc(Cl)cc(NC(=O)OCc2ccccc2)c1 | 28.7
* O=C(Nc1ccc2c(c1)CNC2)c1cccc2[nH]c(C(F)(F)F)cc12 | 2.51
* CO[C@H]1C[C@H](n2cc3c(C(=O)Nc4ccc5c(c4)CNC5)cc(Cl)cc3n2)C1 | 13.9
* OCC#C[C@H](Nc1ccc2c(c1)CNC2)c1cc(Cl)cc2[nH]ncc12 | 22.4

Let us examine a further case.
Item "O=C(NCC(F)F)[C@H](Nc1ccc2c(c1)CNC2)c1cc(Cl)cc2c1CCC2" has what recorded IC50?
0.42

----------
- TESTED TARGET: NS3 (West Nile virus, UniProt K4FQI5)
- Sequence (K4FQI5 whole entry): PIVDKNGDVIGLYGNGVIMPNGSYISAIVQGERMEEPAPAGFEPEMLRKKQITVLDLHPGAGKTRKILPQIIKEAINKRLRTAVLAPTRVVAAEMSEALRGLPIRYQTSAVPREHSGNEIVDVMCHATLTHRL
- METHOD SUMMARY: Functional biochemical assay to identify treatments for viral infectious disease that targets West Nile NS2B-NS3 protease. Utilizing a direct enzyme activity measurement method, reading the fluorescence intensity is used to characterize the relative potency of inhibitors as IC50.
REPORTED ENDPOINT: log10 of IC50 (log10 of the value in µM)
Please be aware that the numbers have been log10-transformed from IC50 in µM.

- O=C(NCCOCC1CC1)[C@H](Nc1ccc2c(c1)CNC2)c1cc(Cl)cc(C2CC2)c1: -0.44
- O=C(NS(=O)(=O)C1CC1)c1cc(Cl)ccc1NS(=O)(=O)c1ccc(Oc2ccccc2Cl)cc1: 1.88
- O=C(Nc1ccc2c(c1)CNC2)c1cc(Cl)cc2c1cnn2C1CCC1: 0.23

Item "CCOCCNC(=O)[C@H](Nc1ccc2c(c1)CNC2)c1cc(Cl)cc2[nH]ncc12" has what recorded log10 of IC50?
-0.33

Queued: "CO[C@H](C)Cn1cc2c(C(=O)Nc3ccc4c(c3)CNC4)cc(Cl)cc2n1"
1.30

Queued: "O=C(Nc1ccc2c(c1)CNC2)c1cc(F)c2[nH]c(=O)[nH]c2c1"
1.26

Queued: "NCc1cccc(NC(=O)[C@@H](NC(=O)OCc2ccccc2)c2ccc(OCc3ccccc3)cc2)c1"
0.84

Queued: "O=C(Nc1ccc2c(c1)CNC2)c1cc(F)cc2nn(-c3ccccn3)nc12"
0.85
